# ASSAY OVERVIEW: Solubility of sodium salt in water (water gradually added until clear)
# Assay type: physicochemical
# RUN PARAMETERS: thermodynamic from solid; in water at 25° C.; deionized water gradually added, ultrasonication to clear solution
# Method: The solubility of the sample in water was calculated.

{"columns": ["SMILES DATA", "UNIT OF MEASURE", "Solubility"],
 "data": [
  ["CC(C)Cc1ccc(-c2nc(-c3ccc(CN4CC(C(=O)[O-])C4)c(F)c3)no2)cc1.[Na+]", "µg/mL", 10000]
]}
